Taken from patent US20060035847A1.

target: human SGLT2 (Homo sapiens, UniProt P31639, I433V); assay: Assay for inhibitory effect on human SGLT2 activity (methyl-α-D-glucopyranoside uptake in COS-7 cells transiently expressing human SGLT2); details: inhibition of methyl-α-D-glucopyranoside uptake, COS-7 cells expressing human SGLT2, 37° C., 2 hours
Sequence (P31639 whole entry I433V): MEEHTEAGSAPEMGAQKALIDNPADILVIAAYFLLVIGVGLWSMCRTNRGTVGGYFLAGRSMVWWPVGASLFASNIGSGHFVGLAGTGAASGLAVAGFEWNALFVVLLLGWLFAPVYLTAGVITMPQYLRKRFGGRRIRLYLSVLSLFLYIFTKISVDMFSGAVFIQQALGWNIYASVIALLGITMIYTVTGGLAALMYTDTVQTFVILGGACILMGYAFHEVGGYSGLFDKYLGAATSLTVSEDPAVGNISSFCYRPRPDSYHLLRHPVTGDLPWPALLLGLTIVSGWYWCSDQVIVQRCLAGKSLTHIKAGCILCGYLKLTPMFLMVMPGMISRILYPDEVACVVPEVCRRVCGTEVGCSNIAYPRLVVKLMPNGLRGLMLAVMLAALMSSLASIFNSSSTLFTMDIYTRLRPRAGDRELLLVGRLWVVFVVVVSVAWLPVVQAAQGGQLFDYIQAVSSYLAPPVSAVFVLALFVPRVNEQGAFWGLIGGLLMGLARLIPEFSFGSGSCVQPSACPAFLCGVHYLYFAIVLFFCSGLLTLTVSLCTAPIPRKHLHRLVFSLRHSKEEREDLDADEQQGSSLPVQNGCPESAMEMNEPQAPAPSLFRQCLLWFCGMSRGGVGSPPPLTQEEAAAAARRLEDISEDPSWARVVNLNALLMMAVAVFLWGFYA
pIC50: −log10 of the molar value.

>  <COMPOUND>
Cc1[nH]nc(O[C@@H]2O[C@H](CO)[C@@H](O)[C@H](O)[C@H]2O)c1Cc1ccc(C(C)C)cc1 [Reference Example 47]

>  <ASSAY_TARGET>
human SGLT2 (Homo sapiens, UniProt P31639, I433V)

>  <pIC50>
6.36

$$$$
>  <COMPOUND>
CSc1ccc(Cc2c(O[C@@H]3O[C@H](CO)[C@@H](O)[C@H](O)[C@H]3O)nn(C)c2C(F)(F)F)cc1 [Reference Example 54]

>  <ASSAY_TARGET>
human SGLT2 (Homo sapiens, UniProt P31639, I433V)

>  <pIC50>
6.08

$$$$
>  <COMPOUND>
CCc1ccc(Cc2c(O[C@@H]3O[C@H](CO)[C@@H](O)[C@H](O)[C@H]3O)n[nH]c2C)cc1 [Reference Example 58]

>  <ASSAY_TARGET>
human SGLT2 (Homo sapiens, UniProt P31639, I433V)

>  <pIC50>
6.72

$$$$
